- System: Nuclear hormone receptor DAF-12 (Heterodera glycines), GAL4 fusion
- Measurement description: H. glycines DAF-12 receptor agonists, primary screen, cell-based, luminescence, HEK293, GAL4 fusion, UAS-luciferase (AID 687014)
- Condition summary: HEK293 GAL4-hgDAF12 UAS-luciferase reporter, agonist luminescence; at 6.8 µM; normalized to butyrate control
In all, about 370,000 compounds went through this assay and about 6,800 (1.8%) were called active.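 How the source made its calls: active means activation above a cutoff set at the mean of all screened compounds plus 3 SD (cut at about 10% in these data); inactive means the rest.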 This is one part of a sample in which actives are shown more often than they occur.
Outcomes: active, inactive

1) O=C(C=CC(=O)Nc1ccc(F)cc1F)Nc1ccc(F)cc1F ... inactive
2) CC(C)C(=O)Nc1cccc(C(=O)Nc2ccc3c(c2)OCO3)c1 ... active
3) COc1ccc(NC(=O)c2c(C)oc3c2CCCC3)cc1 ... inactive

----------
- Tested on: Nuclear hormone receptor DAF-12 (Heterodera glycines), GAL4 fusion
- Measurement description: H. glycines DAF-12 receptor agonists, primary screen, cell-based, luminescence, HEK293, GAL4 fusion, UAS-luciferase (AID 687014)
- Condition summary: HEK293 GAL4-hgDAF12 UAS-luciferase reporter, agonist luminescence; at 6.8 µM; normalized to butyrate control
Hit rate of the full screen: of about 370,000 compounds, about 6,800 (1.8%) were called active.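 How the source made its calls: active means activation above a cutoff set at the mean of all screened compounds plus 3 SD (cut at about 10% in these data); inactive means the rest.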 The full list was thinned out, with actives kept by preference.
Outcome codes: active, inactive

1) COc1ccccc1/C=N/N1CCN(Cc2ccccc2Cl)CC1 ... inactive
2) CCC1([N+](=O)[O-])COC(c2ccc(C)cc2)OC1 (stereo not given) ... inactive
3) COc1ccc(-n2c(COc3ccc(C)cc3)nnc2SCC(=O)Nc2ccc(Oc3ccccc3)cc2)cc1 ... inactive
4) CCn1c2ccccc2c2cc(NC(=O)CSc3nnc(-c4ccccc4)n3-c3ccc(C)cc3)ccc21 ... inactive
5) COC(=O)c1cc(S(=O)(=O)N2CCN(c3ccccc3C)CC2)cn1C ... inactive
6) Cc1cc(NC(=O)Nc2ccccc2[N+](=O)[O-])no1 ... inactive
7) O=C(NNC(=O)c1ccc(Cl)cc1Cl)c1cccs1 ... active
8) Cc1cc(C)c2nc(NC(=O)C3CCCO3)sc2c1 (stereo not given) ... active
9) Cc1ccc(C)c(C(C)NC(=O)C2CCCO2)c1 (stereo not given) ... inactive
10) O=C(Nc1nnc(SCc2c(Cl)cccc2Cl)s1)C1CCCO1 (stereo not given) ... inactive
11) CNCC(O)CN1CCN(c2ccccc2OC)CC1 (stereo not given) ... inactive
12) COc1cccc(-c2cc(CNC(=O)[C@@H](Cc3ccccc3)NC(=O)[C@H]3O[C@@H](n4cnc(C(N)=O)n4)[C@H](O)[C@@H]3O)no2)c1 ... inactive
13) Cc1ccc(CCNC(=O)c2ccc3nc4ccccc4c(=O)n3c2)cc1 ... inactive
14) Nc1nc(SCC(=O)Nc2ccc(Cl)c([N+](=O)[O-])c2)n[nH]1 ... inactive
15) Cn1ncc2c(NNC(=O)Cc3cccc4ccccc34)ncnc21 ... inactive
16) C[C@@H]1COc2cccc(N3CCCC3)c2S(=O)(=O)N1C ... inactive
17) COc1ccccc1CCNS(=O)(=O)c1cc2c3c(c1)C(C)C(=O)N3CCC2 (stereo not given) ... inactive
18) OCCN1CCN(c2ncnc3c2ncn3[C@H]2CN(Cc3ccco3)C[C@@H](CO)O2)CC1 ... inactive
19) C#CCN([C@H](C(=O)OC)C(C)CC)S(=O)(=O)c1ccccc1Br (stereo not given in full) ... inactive
20) CC(C)=CCN1CCN(Cc2ccc(Oc3ncccn3)cc2)CC1CCO (stereo not given) ... inactive
